Experiment Description: Inhibition of Chymotrypsin after 30 mins preincubated for 5 mins before addition of substrate
Would you mind telling me the reported IC50 of each entry?
Answers are plain numbers, in µM.

Use the examples below as a reference point.
CC[C@H](C)[C@H]1C(=O)N(C)[C@@H](Cc2ccc(OC)c(Cl)c2)C(=O)N[C@@H](C(C)C)C(=O)O[C@H](C)[C@H](NC(=O)[C@H](O)CO)C(=O)N[C@@H](CCCNC(=N)N)C(=O)N[C@H]2CC[C@@H](OC)N1C2=O	2.8
CC[C@H](C)[C@H]1C(=O)N(C)[C@@H](Cc2ccc(OC)c(Cl)c2)C(=O)N[C@@H](C(C)C)C(=O)O[C@H](C)[C@H](NC(=O)[C@H](O)CO)C(=O)N[C@@H](CCCNC(=N)N)C(=O)N[C@H]2CC[C@@H](O)N1C2=O	19.6

Next up:
Task: Entry under review: CC[C@H](C)[C@@H]1NC(=O)[C@H](Cc2ccc(OC)c(Cl)c2)N(C)C(=O)[C@H]([C@@H](C)CC)N2C(=O)[C@H](CC[C@H]2O)NC(=O)[C@H](CCCNC(=N)N)NC(=O)[C@@H](NC(=O)[C@H](O)COS(=O)(=O)O)[C@@H](C)OC1=O . Reported IC50?
Result: 18.2

---

Experiment Description: Inhibition of Chymotrypsin after 30 mins preincubated for 5 mins before addition of substrate
pIC50: −log10 of the molar value.
Parameter: pIC50

Use the examples below as a reference point.
CC[C@H](C)[C@@H]1NC(=O)[C@H](Cc2ccc(O)cc2)N(C)C(=O)[C@H]([C@@H](C)CC)N2C(=O)[C@H](CC[C@H]2O)NC(=O)[C@H](CCCNC(=N)N)NC(=O)[C@@H](NC(=O)[C@@H](COS(=O)(=O)O)OS(=O)(=O)O)[C@@H](C)OC1=O	< 4.00
CC[C@H](C)[C@H]1C(=O)N(C)[C@@H](Cc2ccc(O)c(Cl)c2)C(=O)N[C@@H](C(C)C)C(=O)O[C@H](C)[C@H](NC(=O)[C@@H](COS(=O)(=O)O)OS(=O)(=O)O)C(=O)N[C@@H](CCCNC(=N)N)C(=O)N[C@H]2CC[C@@H](O)N1C2=O	< 4.00

Task: Entry under review: CC[C@H](C)[C@@H]1NC(=O)[C@H](Cc2ccc(OC)c(Cl)c2)N(C)C(=O)[C@H]([C@@H](C)CC)N2C(=O)[C@H](CC[C@H]2O)NC(=O)[C@H](CCCNC(=N)N)NC(=O)[C@@H](NC(=O)[C@@H](COS(=O)(=O)O)OS(=O)(=O)O)[C@@H](C)OC1=O . Reported pIC50?
Result: < 4.00
